testedTarget: LmCS (L. major cysteine synthase) (Leishmania major, UniProt Q4Q159)
Sequence (Q4Q159 1-333): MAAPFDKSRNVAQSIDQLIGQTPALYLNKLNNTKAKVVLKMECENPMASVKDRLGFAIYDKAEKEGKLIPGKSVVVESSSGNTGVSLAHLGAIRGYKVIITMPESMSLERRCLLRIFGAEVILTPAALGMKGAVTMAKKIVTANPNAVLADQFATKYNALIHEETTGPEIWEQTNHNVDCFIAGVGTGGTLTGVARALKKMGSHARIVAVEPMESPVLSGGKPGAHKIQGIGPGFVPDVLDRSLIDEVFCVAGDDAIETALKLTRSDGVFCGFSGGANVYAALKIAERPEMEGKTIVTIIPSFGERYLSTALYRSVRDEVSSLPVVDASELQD
assaySummary: biochemical
testSettings: LmCS IC50, 3 mM OAS, 2 mM sodium sulfide, pH 7.8, room temperature; values with ± are mean ± SD of three determinations, others single IC50 curve
Where no end group is shown, it is not given here.
reportedProperty: pIC50
Remember the convention: pIC50 equals -log10 of concentration in molar.

Q: What does the record list as pIC50 for EGDGSGI [EGDGSGI] ?
Result: 3.57

---

testedTarget: LmCS (L. major cysteine synthase) (Leishmania major, UniProt Q4Q159)
Sequence (Q4Q159 1-333): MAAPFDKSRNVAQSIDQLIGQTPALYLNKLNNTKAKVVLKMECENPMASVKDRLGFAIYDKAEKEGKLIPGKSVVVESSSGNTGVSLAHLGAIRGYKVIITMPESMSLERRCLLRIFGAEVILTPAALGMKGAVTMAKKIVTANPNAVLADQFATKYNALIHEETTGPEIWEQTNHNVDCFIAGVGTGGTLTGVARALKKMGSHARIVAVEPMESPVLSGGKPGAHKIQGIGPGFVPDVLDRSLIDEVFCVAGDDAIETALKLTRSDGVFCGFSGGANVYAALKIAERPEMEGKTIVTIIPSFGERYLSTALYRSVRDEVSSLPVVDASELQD
assaySummary: biochemical
testSettings: LmCS IC50, 3 mM OAS, 2 mM sodium sulfide, pH 7.8, room temperature; values with ± are mean ± SD of three determinations, others single IC50 curve
Where a SMILES comes first, the peptide text is derived from it.
reportedProperty: pIC50
Remember the convention: pIC50 equals -log10 of concentration in molar.

Q: What does the record list as pIC50 for CC[C@H](C)[C@H](NC(=O)CNC(=O)[C@H](CO)NC(=O)CN)C(=O)O [GSGI] (H-GSGI-OH) ?
Result: 2.82

Q: Also CC[C@H](C)[C@H](NC(=O)[C@@H](NC(=O)[C@H](Cc1ccc(O)cc1)NC(=O)[C@@H](N)CC(=O)O)C(C)C)C(=O)O [DYVI] (H-DYVI-OH) ?
Result: 5.15

---

testedTarget: AtOAS-TL (A. thaliana O-acetylserine thiol-lyase) (Arabidopsis thaliana, UniProt P47998)
Sequence (P47998 whole entry): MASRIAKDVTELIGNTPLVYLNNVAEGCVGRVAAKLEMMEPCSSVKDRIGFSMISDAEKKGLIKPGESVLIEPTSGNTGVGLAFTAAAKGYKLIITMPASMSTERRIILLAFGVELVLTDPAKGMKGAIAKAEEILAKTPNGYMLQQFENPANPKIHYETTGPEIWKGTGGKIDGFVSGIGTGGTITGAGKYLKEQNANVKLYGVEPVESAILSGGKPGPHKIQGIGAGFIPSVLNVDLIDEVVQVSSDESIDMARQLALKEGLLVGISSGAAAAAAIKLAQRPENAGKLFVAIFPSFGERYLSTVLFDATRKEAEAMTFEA
testSettings: read-out: AtOAS-TL IC50; 3 mM OAS, 2 mM sodium sulfide, pH 7.8, room temperature; values with ± are mean ± SD of three determinations, others single IC50 curve
Where a SMILES comes first, the peptide text is derived from it.
reportedProperty: IC50

Q: Lab note: need IC50 with AtOAS-TL (A. thaliana O-acetylserine thiol-lyase) (Arabidopsis thaliana, UniProt P47998) for entry CC[C@H](C)[C@H](NC(=O)CNC(=O)[C@H](CO)NC(=O)CN)C(=O)O [GSGI] (H-GSGI-OH) , please look it up.
Result: ≤ 2000 µM
